# system: NT-3 growth factor receptor (Homo sapiens)
# test context: at 0.1 µM
Overview of recorded inhibition for various compounds
Respond with a number, then the unit of measure.

// fetch inhibition for "COc1ccc(C2=C(N3CCc4ccccc43)C(=O)NC2=O)cc1" ; system: NT-3 growth factor receptor (Homo sapiens);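 note: mean percent inhibition of TRKC, reported within the GSK PKIS dataset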
3.23%

More entries:
Answer with inhibition of "COc1ccc2ncn(-c3cc(O[C@H](C)c4ccccc4Cl)c(C(N)=O)s3)c2c1" measured for NT-3 growth factor receptor (Homo sapiens).
4.36%

Fill in: inhibition on NT-3 growth factor receptor (Homo sapiens), entry "Cc1nnc(-c2ccc(C)c(-c3ccc(C(=O)NCc4ccc(Cl)cc4)cc3)c2)o1"
2.79%

###

# system: Serine/threonine-protein kinase D2 (Homo sapiens);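 note: reported percent inhibition values are means, part of the GSK PKIS kinase panel screen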
# test context: at 0.1 µM
test readout: inhibition (%)
State the answer as a number, implicitly in %.

Find the measured inhibition of "C[C@@H](Oc1cc(-n2cnc3ccc(OCC4CCN(C)CC4)cc32)sc1C(N)=O)c1ccccc1Cl" and report it.
7.73

For the molecule "C/C(Nc1ccc(S(N)(=O)=O)cc1)=C1/C(=O)Nc2ccccc21" , give its reported inhibition.
0.69

Specify measured inhibition for "O=C(Nc1n[nH]c2cc(-c3ccccc3)ccc12)C1CC1" .
4.79

Identify measured inhibition corresponding to "O=C(NCC1CC1)c1ccc(-c2cccc(C(=O)NC3CC3)c2)cc1"
2.36

Query inhibition for "NC(=O)Cc1ccccc1Oc1nccc(-c2c(-c3ccc(F)cc3)ncn2C2CCNCC2)n1"
4.63

###

# System: Tyrosine-protein kinase ABL1 (Homo sapiens), P00519 [E255K]
# Sequence (P00519 whole entry E255K): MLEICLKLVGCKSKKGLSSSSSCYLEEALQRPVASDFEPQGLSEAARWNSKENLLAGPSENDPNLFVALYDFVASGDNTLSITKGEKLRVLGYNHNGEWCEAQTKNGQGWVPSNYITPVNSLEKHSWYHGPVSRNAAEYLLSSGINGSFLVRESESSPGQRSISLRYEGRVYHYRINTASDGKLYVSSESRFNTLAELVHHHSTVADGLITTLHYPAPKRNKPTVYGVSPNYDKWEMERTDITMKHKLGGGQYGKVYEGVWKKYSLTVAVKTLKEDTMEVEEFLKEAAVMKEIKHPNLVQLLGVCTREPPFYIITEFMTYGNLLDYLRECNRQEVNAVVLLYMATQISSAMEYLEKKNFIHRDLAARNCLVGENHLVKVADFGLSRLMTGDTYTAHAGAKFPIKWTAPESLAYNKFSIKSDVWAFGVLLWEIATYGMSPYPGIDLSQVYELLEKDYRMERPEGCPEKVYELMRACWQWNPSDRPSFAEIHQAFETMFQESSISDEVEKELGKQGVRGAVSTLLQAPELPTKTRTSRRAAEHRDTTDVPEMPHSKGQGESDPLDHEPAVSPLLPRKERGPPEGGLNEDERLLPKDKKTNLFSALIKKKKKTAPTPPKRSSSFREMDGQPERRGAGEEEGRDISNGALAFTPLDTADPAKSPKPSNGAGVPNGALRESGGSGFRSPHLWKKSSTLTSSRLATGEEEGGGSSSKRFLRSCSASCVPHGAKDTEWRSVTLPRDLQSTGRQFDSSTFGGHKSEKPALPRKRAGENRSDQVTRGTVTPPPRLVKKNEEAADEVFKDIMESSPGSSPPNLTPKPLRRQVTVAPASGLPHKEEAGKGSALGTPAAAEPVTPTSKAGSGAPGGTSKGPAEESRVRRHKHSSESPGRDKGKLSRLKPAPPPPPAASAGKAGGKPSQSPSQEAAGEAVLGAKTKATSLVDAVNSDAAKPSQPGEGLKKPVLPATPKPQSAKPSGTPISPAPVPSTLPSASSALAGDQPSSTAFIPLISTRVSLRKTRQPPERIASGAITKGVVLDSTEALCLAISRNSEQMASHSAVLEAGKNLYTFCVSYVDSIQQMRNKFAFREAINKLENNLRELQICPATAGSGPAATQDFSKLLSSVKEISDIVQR
# test context: at 0.1 µM
The following compounds are shown together with reported inhibition values.
State the answer as a number, implicitly in %.

Solved entries (count: 10):
Quote inhibition with test system Tyrosine-protein kinase ABL1 (Homo sapiens), P00519 [E255K] for "c1ccc(-c2n[nH]cc2-c2ccnc(-c3ccc(OCCN4CCOCC4)cc3)c2)nc1"
9.49

Give the observed inhibition of "CCc1nccc2c1nc(-c1nonc1N)n2CC" for Tyrosine-protein kinase ABL1 (Homo sapiens), P00519 [E255K].
-0.36

With Tyrosine-protein kinase ABL1 (Homo sapiens), P00519 [E255K] as the test system, provide measured inhibition for this compound: "Fc1ccc(-c2ncn(C3CCNCC3)c2-c2ccnc(Oc3ccc(Oc4ccccc4)cc3)n2)cc1"
1.84

Give Tyrosine-protein kinase ABL1 (Homo sapiens), P00519 [E255K] inhibition for the following compound: "COc1cc(Nc2ncc(-c3ccccc3)o2)cc(OC)c1OC"
5.32

# lookup: Tyrosine-protein kinase ABL1 (Homo sapiens), P00519 [E255K] inhibition, key = "Cc1ccc(C(=O)NC(C)C)cc1-c1ccc(C(=O)NCC2CC2)cc1"
-0.92

Provide Tyrosine-protein kinase ABL1 (Homo sapiens), P00519 [E255K] inhibition reading for "COc1cc2ncn(-c3cc(OCc4cccs4)c(C(N)=O)s3)c2cc1OC" .
2.64

Give reported inhibition for "COc1cc2ncn(-c3cc(OCc4ccccc4C(F)(F)F)c(C(C)=O)s3)c2cc1OC" (Tyrosine-protein kinase ABL1 (Homo sapiens), P00519 [E255K])
1.66

Find the measured inhibition of "CCc1cccc(CC)c1/C=C/c1cncc(C(=O)NC)c1" with Tyrosine-protein kinase ABL1 (Homo sapiens), P00519 [E255K] as test system.
3.61

Quote Tyrosine-protein kinase ABL1 (Homo sapiens), P00519 [E255K] inhibition for entry "Fc1ccc(-c2ncn(CCCN3CCOCC3)c2-c2ccncc2)cc1" .
0.23

Report inhibition from Tyrosine-protein kinase ABL1 (Homo sapiens), P00519 [E255K] testing of "C[C@@H](Oc1cc(-n2cnc3ccc(OCC4CCN(C)CC4)cc32)sc1C(N)=O)c1ccccc1Cl"
0.13

Further cases:
Report measured inhibition on Tyrosine-protein kinase ABL1 (Homo sapiens), P00519 [E255K]; entry: "N#Cc1ccc(Oc2nccc(-c3c(-c4ccc(F)cc4)ncn3C3CCNCC3)n2)cc1"
2.37

Enter recorded inhibition with Tyrosine-protein kinase ABL1 (Homo sapiens), P00519 [E255K] for "NS(=O)(=O)c1ccc(N/N=C2\C(=O)Nc3ccc(-c4cnco4)cc32)cc1" here.
1.82
